Ref: the supplement of paper PMC10065799

molecular target: c-Src SH2; test: SH2 binding enrichment of the phosphorylated peptide, bacterial display (enrichment ratio); higher = better substrate or ligand; peptides without Tyr show the background
RECORDED_METRIC: SH2 binding enrichment

KTDVHYRSLGG [DYSF_Y1858] | 0.472
CVRTIYTIDGS [DCLK2_Y124_G119C] | 0.529
ILNANCMAKRL [GLDC_Y839_Y839C] | 0.534
NSNAAYEESHF [LRIF1_Y714_Q716E] | 1.23

A: RSAGKYDVFFI [MECP2_Y120_L124F_YF]
B: PLRAYYLIARV [HLCS_Y635_D634Y]
C: LLSVAYKNVVG [YWHAG_Y49]
**Q:** List from greatest to least SH2 binding enrichment. Present the labels in the sequence the task asks for.
**A:** B, A, C
(B: 1.62, A: 1.11, C: 0.434)

1: AEPHTYEEPGR [EPHA8_Y616]
2: ENELTYYCYKK [CD59_Y86_C89Y]
**Q:** # query: argmin of SH2 binding enrichment over 1 and 2 Indicate your choice by writing its label.
**A:** 2

P: AHPIIYTIIEA [PYKtide_no-pT_2014]
Q: NELTYYCYKKD [CD59_Y87_C89Y]
**Q:** Name the one with the greater SH2 binding enrichment value, either P or Q as given. Mark your selection by writing its label.
**A:** P
(P: 1.5, Q: 0.482)

a: IKAGAYDFPSL [CAMK2A_Y230_P235L]
b: TPSGNYVACGG [GNB1_Y111_A106T]
**Q:** Out of a and b , name the one with the higher SH2 binding enrichment. Respond with the label that goes with your answer.
**A:** a
(a: 4.76, b: 1.73)

----------
molecular target: SHP2-C SH2; experiment: SH2 binding enrichment of the phosphorylated peptide, bacterial display (enrichment ratio); higher = better substrate or ligand; peptides without Tyr show the background
RECORDED_METRIC: SH2 binding enrichment

As a guide, the following entries are already answered.
LDPIQYSKHPP [SQSTM1_Y433_T430P] | 0.838
HLQQSNLPRGT [TEX45_Y396_Y396N] | 0.583
SKKSTYRALLD [GANC_Y43_Q44R] | 0.688
PYAEPYADYGG [APBA1_Y187_S184A] | 0.695

1: CTTIYYNYMCN [TP53_Y234_H233Y]
2: FESPRYLQVRI [FANCA_Y488_H492R]
3: FEPDAYFDLDQ [ELP5_Y302_D303Y_YF]
**Q:** Order the records, beginning with the lowest SH2 binding enrichment and ending with the highest. Put the labels in the requested order and write them down.
**A:** 3, 2, 1

----------
biological target: MERTK (UniProt Q12866); test: phosphorylation enrichment, bacterial display (enrichment ratio); higher = better substrate or ligand; peptides without Tyr show the background
Sequence (Q12866 whole entry, looked up): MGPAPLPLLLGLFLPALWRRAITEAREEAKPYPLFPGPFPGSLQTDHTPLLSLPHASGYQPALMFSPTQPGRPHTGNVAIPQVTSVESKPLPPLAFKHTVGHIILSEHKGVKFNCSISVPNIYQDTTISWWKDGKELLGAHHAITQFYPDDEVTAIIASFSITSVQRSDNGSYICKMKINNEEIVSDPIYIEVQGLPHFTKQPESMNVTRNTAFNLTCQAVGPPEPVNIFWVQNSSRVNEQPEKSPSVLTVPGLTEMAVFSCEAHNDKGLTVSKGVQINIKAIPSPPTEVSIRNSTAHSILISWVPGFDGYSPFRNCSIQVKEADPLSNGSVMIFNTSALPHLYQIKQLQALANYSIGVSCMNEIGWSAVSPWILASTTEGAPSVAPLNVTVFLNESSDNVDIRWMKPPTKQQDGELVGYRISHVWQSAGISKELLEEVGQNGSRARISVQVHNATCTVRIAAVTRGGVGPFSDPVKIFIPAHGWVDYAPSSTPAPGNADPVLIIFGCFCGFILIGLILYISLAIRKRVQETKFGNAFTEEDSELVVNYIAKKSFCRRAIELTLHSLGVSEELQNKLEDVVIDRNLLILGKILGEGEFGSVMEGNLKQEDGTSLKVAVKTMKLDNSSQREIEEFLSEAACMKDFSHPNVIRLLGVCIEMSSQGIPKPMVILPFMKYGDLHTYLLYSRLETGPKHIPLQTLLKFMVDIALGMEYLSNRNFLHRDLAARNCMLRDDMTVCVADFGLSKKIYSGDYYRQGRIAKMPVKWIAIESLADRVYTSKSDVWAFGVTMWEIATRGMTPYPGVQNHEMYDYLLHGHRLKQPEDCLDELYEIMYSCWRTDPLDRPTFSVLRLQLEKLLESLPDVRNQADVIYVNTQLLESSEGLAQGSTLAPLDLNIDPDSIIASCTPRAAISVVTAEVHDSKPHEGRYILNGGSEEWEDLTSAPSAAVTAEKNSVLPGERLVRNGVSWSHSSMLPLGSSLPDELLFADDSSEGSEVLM
RECORDED_METRIC: phosphorylation enrichment
Answer with a bare number; do not write a unit.

KGEDFYCVTCP [FHL1_Y149_H154P] | 6.08
TLLERYGMTEI [ACSF3_Y355] | 0.342
MSSLFYANTLF [HOXB7_Y6_YF] | 3.91
KNNDGYTDYAE [MCFD2_Y135_I136T] | 0.458
SPPEVYAIMRG [NTRK1_Y757_C752S] | 1.82

The reported phosphorylation enrichment value, MERTK (UniProt Q12866), for FTAVGYHKHFT [NOMO1_Y1137_I1141F] reads 0.424

Summary line: PSQRRYVYYYS [PTEN_Y174] , MERTK (UniProt Q12866), reported phosphorylation enrichment = 2.42

----------
molecular target: c-Src SH2; experiment: SH2 binding enrichment of the phosphorylated peptide, bacterial display (enrichment ratio); higher = better substrate or ligand; peptides without Tyr show the background
RECORDED_METRIC: SH2 binding enrichment

Below: 10 sequences and their reported SH2 binding enrichment.
LQLLGYRPVFS [CHST6_Y358_YF] | 0.68
YRASYYRKGGC [ALK_Y1283] | 0.484
RGNMYYENSYA [EGFR_Y113] | 5.02
FDSPFYRDSLP [TSC1_Y508] | 0.518
DKGTLYIAEQI [PLBD1_Y375_V377A] | 0.44
AKKKMYSHKTK [AGXT_Y231_R233H] | 1.34
LKDEDYLKDTV [HAUS3_Y582_I586T] | 0.478
SVTCTGSPALN [TP53_Y126_Y126G] | 0.388
ITVCDYTNPCT [MYD88_Y276] | 0.701
KCCCIYEKPRA [PPP1R11_Y64] | 0.478

P: KKLHEYNTQFQ [PIK3R1_Y452]
Q: PDMHSYVVRFN [GRIN2D_Y732_M733V_YF]
R: INASGYRVGPA [ACSM1_Y477_I479V]
**Q:** Output the entries ranked by SH2 binding enrichment from maximum down to minimum. When ranking, write the labels in the order the request describes.
**A:** Q, P, R

----------
test system: AncSZ; test: phosphorylation enrichment, bacterial display (enrichment ratio); higher = better substrate or ligand; peptides without Tyr show the background
This section presents sequences with their documented phosphorylation enrichment values.
Write no unit; give the number alone.

Examples from the recorded data:
WSQAMYPDLGP [STARD8_Y330_R327Q] | 1.06
GEEIKDMLWLS [OTC_Y55_Y55D] | 0.913
HPWPQYTTRAP [FNDC1_Y1281] | 0.628

Reported phosphorylation enrichment ( LSAPWYLNRIS [HEXA_Y421] ) = 0.791

# phosphorylation enrichment of GDFFCYLAEVA [YWHAG_Y133_R132C_YF] = 1.33

The measured phosphorylation enrichment associated with NYSKMYCNPDA [KNL1_Y489_A486S] reads 0.794

----------
In this section we review reported phosphorylation enrichment values for a set of sequences.
target: EPHB2 (UniProt P29323); test: phosphorylation enrichment, bacterial display (enrichment ratio); higher = better substrate or ligand; peptides without Tyr show the background
Sequence (P29323 whole entry, looked up): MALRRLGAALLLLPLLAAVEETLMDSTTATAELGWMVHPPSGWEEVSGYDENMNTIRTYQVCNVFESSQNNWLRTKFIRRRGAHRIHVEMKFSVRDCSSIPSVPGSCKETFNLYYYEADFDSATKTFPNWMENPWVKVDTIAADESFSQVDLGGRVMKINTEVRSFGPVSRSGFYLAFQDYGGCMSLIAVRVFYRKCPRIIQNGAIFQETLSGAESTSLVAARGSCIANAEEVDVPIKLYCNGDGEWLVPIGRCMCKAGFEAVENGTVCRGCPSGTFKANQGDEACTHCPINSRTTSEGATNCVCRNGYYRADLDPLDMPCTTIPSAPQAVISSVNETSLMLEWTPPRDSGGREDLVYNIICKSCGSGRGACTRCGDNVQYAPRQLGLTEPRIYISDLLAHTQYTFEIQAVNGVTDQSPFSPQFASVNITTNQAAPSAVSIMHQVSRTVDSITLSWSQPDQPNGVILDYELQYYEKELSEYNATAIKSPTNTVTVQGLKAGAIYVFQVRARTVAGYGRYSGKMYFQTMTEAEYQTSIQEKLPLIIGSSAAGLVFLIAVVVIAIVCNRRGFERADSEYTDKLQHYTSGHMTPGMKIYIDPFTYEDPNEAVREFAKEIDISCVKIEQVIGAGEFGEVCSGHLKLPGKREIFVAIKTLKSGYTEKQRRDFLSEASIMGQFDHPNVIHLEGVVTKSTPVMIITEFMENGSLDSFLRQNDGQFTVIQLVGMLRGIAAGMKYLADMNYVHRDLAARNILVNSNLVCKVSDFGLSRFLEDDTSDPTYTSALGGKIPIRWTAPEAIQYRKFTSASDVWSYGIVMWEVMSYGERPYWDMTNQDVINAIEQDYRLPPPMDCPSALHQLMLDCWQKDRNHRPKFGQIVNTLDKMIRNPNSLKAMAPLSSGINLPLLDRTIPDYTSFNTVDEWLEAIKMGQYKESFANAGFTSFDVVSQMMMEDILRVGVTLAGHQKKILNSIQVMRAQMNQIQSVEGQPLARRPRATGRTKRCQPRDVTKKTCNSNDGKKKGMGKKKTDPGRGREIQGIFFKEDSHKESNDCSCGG
Respond with the number and no other words.

Here's what some known entries look like.
EVESPYEVRDY [GIGYF2_Y1168_H1171R] | 0.752
CTSIHYNFMCN [TP53_Y234_T231S_YF] | 0.502
DKATEYIQYMR [MAX_Y70] | 0.451
LSQQVYRVNLS [FAT4_Y480_F475L] | 0.622
LANNEYFFRVC | 0.917
ALRHFYKLNII [ETV6_Y402_YF] | 0.535
LLSVAYKNVVG [YWHAG_Y49] | 0.64
RWHEGYRQTPR [CD44_Y412_K417R] | 0.383
DRLASYLDKMR [KRT17_Y98_V102M] | 0.467
ALWYIYSHTRS [ENG_Y614] | 0.768

The measured phosphorylation enrichment associated with MWGSDYVHLSR [MAP3K4_Y582_Q584H] reads 1.47

Entry under test: DPHECYAKVFD [ALB_Y394] . Its phosphorylation enrichment was 0.591

response.value for KLKNAYEESLE [MYH7_Y1488] (field: phosphorylation enrichment) = 0.445

Quick note, phosphorylation enrichment for CTTIHYNFMCK [TP53_Y234_N239K_YF] landed at 0.387

----------
biological target: c-Src SH2; experiment: SH2 binding enrichment of the phosphorylated peptide, bacterial display (enrichment ratio); higher = better substrate or ligand; peptides without Tyr show the background
RECORDED_METRIC: SH2 binding enrichment

Example results:
RHFTGYRIELQ [INSR_Y818] | 1.38
KVKVEYDMTVP [AHNAK_Y964_G962V] | 0.79
RFLRGYRQDAF [HLA-A_Y137_YF] | 0.559
RNFDTYTAGLS [RHBDD1_Y264_YF] | 0.428
AEPTGYSAELS [EZR_Y499] | 0.457

a: TLNVRYESVQA [CEACAM7_Y236]
b: PHMQTYEVDPN [SDHB_Y61_L65P]
c: LLIVEYAKYGS [RET_Y806]
**Q:** Highest SH2 binding enrichment first, then in falling order down to the smallest. Provide the ranking by listing each label in its place in the requested order.
**A:** a, c, b

a: MQMEEYRGRVE [BTNL2_Y91_W94R]
b: RPFVFYFSFLL [PTEN_Y177_R173P_YF]
**Q:** In terms of reported SH2 binding enrichment, does a or b have the smaller number? Answer format: the label of the selected item.
**A:** a
(a: 0.408, b: 0.918)

A: LQIPMYEVQWK [KIT_Y553_K550I]
B: VAFLYYKSIGP [ADGRL4_Y302_V300L]
**Q:** Higher SH2 binding enrichment: A or B ? Record your answer as the label of the chosen record.
**A:** A

----------
target: EPHB2 (UniProt P29323); assay: phosphorylation enrichment, bacterial display (enrichment ratio); higher = better substrate or ligand; peptides without Tyr show the background
RECORDED_METRIC: phosphorylation enrichment
I'd appreciate a reply containing only the number, no unit.

ECKHLYSRKEG [PTPN11_Y263_L261H] | 0.285
VSFDEYRFRSF [CFTR_Y515_V520F_YF] | 0.568
DRLASYLDKVR [KRT10_Y160] | 0.429
PFAEPYADFGG [APBA1_Y187_S184A_YF] | 0.593
VGRVGYVSGWG [HP_Y280] | 0.514

Looking up KRISCYEASFQ [PFKFB3_Y194_YF] , I see its phosphorylation enrichment listed as 0.536

// field: phosphorylation enrichment; key: LEAFQYIGESQ [MSH2_Y856_E853A] ; value = 0.585

Record summary for EEHIPCTHMNG [INSR_Y1361_Y1361C] : reported phosphorylation enrichment = 0.597

The value of phosphorylation enrichment measured for the sequence TFEFRYLEDRD [CNOT3_Y746_YF] turned out to be 0.756

Per the record, FTTIHYNFMCN [TP53_Y234_C229Y_YF] has phosphorylation enrichment of 0.65

Form field phosphorylation enrichment, entry HNLYSYPTKYE [MYO3A_Y1396_H1400Y] : 16.7

Recorded phosphorylation enrichment (sequence WRPFGYPRRRR [BCS1L_Y181] ): 0.481

So, KGEDFYCVTCP [FHL1_Y149_H154P] ? Its phosphorylation enrichment was 0.589

Form field phosphorylation enrichment, entry PSDPSYEDTRE [BMPR1A_Y467_M470T] : 0.883
